- TARGET_DESC: T1, fibronectin extra domain B (ED-B) (UniProt P02751 1266-1356, biotinylated (biotin ED-B), site not stated)
- T1 construct: domain: ED-B; Biotin-EDB captured on a streptavidin SA chip (2,000 RU) for SPR and on streptavidin-coated wells for ELISA; also called biotin ED-B; biotin-EDB
- ASSAY_NOTES: SPR (BIAcore X), biotin-EDB on streptavidin SA chip
pKd: −log10 of the molar value.

>  <BINDER>
CSSPIQGSWTWENGKWTWKGIIRLEQ (also called BPB2EDB; BPB2) [peptide 3 (CSSPIQGSWTWENGKWTWKGIIRLEQ)]

>  <pKd>
7.80

$$$$
